B1: CPEB3 Ribozyme (parent)
chain: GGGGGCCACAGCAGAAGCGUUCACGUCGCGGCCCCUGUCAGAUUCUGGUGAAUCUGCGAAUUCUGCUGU

# Variants of: B1
# protocol description: self-cleavage, relative activity (ratio to wild type); higher = more cleavage; co-transcriptional
experimental readout: self-cleavage

{"mutant code": "C22A U64C", "recorded measurement": 0.168}
{"mutant code": "C7U G41A", "recorded measurement": 0.748}
{"mutant code": "G48A C54G", "recorded measurement": 1.02}
{"mutant code": "C34U U46C", "recorded measurement": 0.977}
{"mutant code": "C12G C63G", "recorded measurement": 0.339}
{"mutant code": "C54G A60U", "recorded measurement": 0.393}
{"mutant code": "U53G U69G", "recorded measurement": 1.02}
{"mutant code": "A23G C24U", "recorded measurement": 0.833}
{"mutant code": "G5U C9U", "recorded measurement": 0.877}
{"mutant code": "G11A G58A", "recorded measurement": 0.842}
{"mutant code": "G48C U67C", "recorded measurement": 0.998}
{"mutant code": "G2U C9G", "recorded measurement": 0.129}
{"mutant code": "G5U U38C", "recorded measurement": 0.174}
{"mutant code": "U49G G65C", "recorded measurement": 0.607}
{"mutant code": "G5C U55A", "recorded measurement": 0.192}
{"mutant code": "U20A U61C", "recorded measurement": 0.137}
{"mutant code": "C18U A52G", "recorded measurement": 0.923}
{"mutant code": "A16C G58A", "recorded measurement": 0.189}
{"mutant code": "C18G A52U", "recorded measurement": 0.0952}
{"mutant code": "G3U U26C", "recorded measurement": 0.107}
{"mutant code": "G25U A51G", "recorded measurement": 0.168}
{"mutant code": "C7U A42U", "recorded measurement": 0.899}
{"mutant code": "C24U G41U", "recorded measurement": 0.461}
{"mutant code": "A23C G48C", "recorded measurement": 0.924}
{"mutant code": "A15U U20C", "recorded measurement": 0.211}
{"mutant code": "C63U U69G", "recorded measurement": 1.04}
{"mutant code": "A23G G25U", "recorded measurement": 0.177}
{"mutant code": "C6U A8C", "recorded measurement": 0.941}
{"mutant code": "C54U C66A", "recorded measurement": 0.845}
{"mutant code": "G3C A13C", "recorded measurement": 0.0417}
{"mutant code": "G3C U26G", "recorded measurement": 0.0558}
{"mutant code": "A42U A52G", "recorded measurement": 0.88}
{"mutant code": "C63A U69G", "recorded measurement": 0.991}
{"mutant code": "G2C G48C", "recorded measurement": 0.0429}
{"mutant code": "G4U U21C", "recorded measurement": 0.4}
{"mutant code": "C24A C63A", "recorded measurement": 0.357}
{"mutant code": "C29U U44G", "recorded measurement": 0.3}
{"mutant code": "A16C A23U", "recorded measurement": 0.549}
{"mutant code": "U49A U69G", "recorded measurement": 1.06}
{"mutant code": "G3C G28C", "recorded measurement": 0.0181}
{"mutant code": "G30A G56A", "recorded measurement": 0.713}
{"mutant code": "C35U U69C", "recorded measurement": 1.08}
{"mutant code": "G17U G47C", "recorded measurement": 0.69}
{"mutant code": "G4U U36A", "recorded measurement": 0.122}
{"mutant code": "G4A C32A", "recorded measurement": 0.216}
{"mutant code": "C57A G58U", "recorded measurement": 0.367}
{"mutant code": "U36C A60U", "recorded measurement": 0.376}
{"mutant code": "U20A G30U", "recorded measurement": 0.109}
{"mutant code": "U38A U43G", "recorded measurement": 0.8}
{"mutant code": "G31C A59C", "recorded measurement": 0.178}
{"mutant code": "A10U G31C", "recorded measurement": 0.262}
{"mutant code": "C7G G31A", "recorded measurement": 0.45}
{"mutant code": "C12A U55G", "recorded measurement": 0.172}
{"mutant code": "C57A U62G", "recorded measurement": 0.409}
{"mutant code": "G11U C57G", "recorded measurement": 0.204}
{"mutant code": "C33U U46A", "recorded measurement": 0.98}
{"mutant code": "G19C C66A", "recorded measurement": 0.114}
{"mutant code": "C32A U61G", "recorded measurement": 0.421}
{"mutant code": "C18G A23C", "recorded measurement": 0.187}
{"mutant code": "G25A A52U", "recorded measurement": 0.213}
{"mutant code": "C39A G56C", "recorded measurement": 0.904}
{"mutant code": "G31U G47U", "recorded measurement": 0.795}
{"mutant code": "C45G C54G", "recorded measurement": 0.688}
{"mutant code": "U21G A60G", "recorded measurement": 0.251}
{"mutant code": "G19C C22A", "recorded measurement": 0.0962}
{"mutant code": "U36A G48C", "recorded measurement": 0.291}
{"mutant code": "C6A U21C", "recorded measurement": 0.287}
{"mutant code": "C6U C9G", "recorded measurement": 1.02}
{"mutant code": "G30C C54U", "recorded measurement": 0.673}
{"mutant code": "G25C G47U", "recorded measurement": 0.213}
{"mutant code": "G48C U67G", "recorded measurement": 1.04}
{"mutant code": "C7G C33A", "recorded measurement": 0.147}
{"mutant code": "A23G C45U", "recorded measurement": 0.991}
{"mutant code": "G30C C54G", "recorded measurement": 0.296}
{"mutant code": "G2U C39U", "recorded measurement": 0.0814}
{"mutant code": "C34G U46G", "recorded measurement": 0.766}
{"mutant code": "C18G C63A", "recorded measurement": 0.179}
{"mutant code": "U36G A42G", "recorded measurement": 0.225}
{"mutant code": "U20G C63G", "recorded measurement": 0.21}
{"mutant code": "C45G A60U", "recorded measurement": 0.407}
{"mutant code": "C6G U67G", "recorded measurement": 0.374}
{"mutant code": "U53C C57G", "recorded measurement": 0.398}
{"mutant code": "G11U A40G", "recorded measurement": 0.668}
{"mutant code": "G1A C9A", "recorded measurement": 0.145}
